The reported measurements were obtained from ChEMBL document CHEMBL1201862.

- Tested on: NCI-H23
- Test: NCI tumour cell line growth inhibition, 48 h
Counter-ions that a name gives are not always drawn. Active and inactive are the calls of the source. Cut-off read from the data, not from the text of the source: active = GI50 up to about 1.1 µM and inactive = higher.
Classes used: class 1 (active), class 0 (inactive)

[[record]]
molecule = "Cc1cn([C@@H]2O[C@H](CO[Si](C)(C)C(C)(C)C)[C@]3(O[C@H]3C(=O)NO)[C@H]2O[Si](C)(C)C(C)(C)C)c(=O)[nH]c1=O"
target_desc = "NCI-H23"
qualitative_label = "class 0"

[[record]]
molecule = "O/N=C/[C@H]1COC2(CCCCC2)O1"
target_desc = "NCI-H23"
qualitative_label = "class 0"

[[record]]
molecule = "CN(C)C(=S)OC(Cn1cncn1)c1ccc(Cl)cc1Cl (stereo not drawn)"
target_desc = "NCI-H23"
qualitative_label = "class 0"

[[record]]
molecule = "CCN(CC)CCOC(c1cc(OC)ccc1OC)c1ccc2n1-c1ccccc1OC2 (stereo not drawn)"
target_desc = "NCI-H23"
qualitative_label = "class 0"

[[record]]
molecule = "CN(C)CCCNC(=O)c1cc(NC(=O)c2cc(NC(=O)[C@@H]3C[C@H]3C(=O)Nc3cc(C(=O)Nc4cc(C(=O)NCCCN(C)C)n(C)c4)n(C)c3)cn2C)cn1C"
target_desc = "NCI-H23"
qualitative_label = "class 0"

[[record]]
molecule = "COC(=O)C(=O)C(C(=O)C(=O)Nc1cccc(C(C)=O)c1)c1nc2ccccc2nc1O (stereo not drawn)"
target_desc = "NCI-H23"
qualitative_label = "class 0"

[[record]]
molecule = "c1cc(CSSCc2ccncc2)ccn1"
target_desc = "NCI-H23"
qualitative_label = "class 0"

[[record]]
molecule = "C=C1C[C@@H]2CC[C@@]34C[C@H]5O[C@H]6[C@@H](O3)[C@H]3O[C@H](CC[C@@H]3O[C@H]6[C@H]5O4)CC(=O)C[C@@H]3[C@@H](OC)[C@@H](C[C@H](O)CN)O[C@H]3C[C@H]3O[C@@H](CC[C@@H]1O2)C[C@@H](C)C3=C [ERIBULIN MESYLATE]"
target_desc = "NCI-H23"
qualitative_label = "class 1"

[[record]]
molecule = "CC1(C)O[C@@H](CP(c2ccc3ccccc3c2)c2ccc3ccccc3c2)[C@H](CP(c2ccc3ccccc3c2)c2ccc3ccccc3c2)O1"
target_desc = "NCI-H23"
qualitative_label = "class 0"

[[record]]
molecule = "CSc1nn(C)cc2nc(C)nc1-2"
target_desc = "NCI-H23"
qualitative_label = "class 0"

[[record]]
molecule = "CC(=O)OCc1cc(=O)n2c([nH]c3ccccc32)c1C#N"
target_desc = "NCI-H23"
qualitative_label = "class 0"

[[record]]
molecule = "CC(C)Cc1cnc(CC(C)C)c(=O)[nH]1"
target_desc = "NCI-H23"
qualitative_label = "class 0"

[[record]]
molecule = "CC(C)(C)[Si](C)(C)OCC1OC(n2cnc3c(=O)[nH]c(N)nc32)C(O[Si](C)(C)C(C)(C)C)C1O[Si](C)(C)C(C)(C)C (stereo not drawn)"
target_desc = "NCI-H23"
qualitative_label = "class 0"


---

Below is a list of entries, each paired with its recorded GI50 value.
- Tested on: SNB-19
- Test: NCI tumour cell line growth inhibition, 48 h
The source made the active and inactive calls. No stated cut-off is given here; in the data, active = GI50 up to about 1.1 µM and inactive = higher.
Parameter: GI50

[[record]]
molecule = "[N-]=[N+]=NC1C2CC3CC(C2)CC1C3 (centres undefined)"
value = "> 100 µM (inactive)"

[[record]]
molecule = "CC(C)[C@@H]1NC(=O)[C@H]2N=C(O[C@@H]2C)[C@@H]2CCCN2C(=O)[C@H](Cc2ccccc2)NC(=O)[C@@H]2CSC(=N2)[C@@H](Cc2ccccc2)NC(=O)[C@@H]2CSC1=N2"
value = "> 50 µM (inactive)"

[[record]]
molecule = "Cc1n[nH]c(=O)n1/N=C/c1cccs1"
value = "> 100 µM (inactive)"

[[record]]
molecule = "COc1cc(/C=C(\\C)[N+](=O)[O-])cc(OC)c1"
value = "> 40.9 µM (inactive)"

[[record]]
molecule = "CN(C)CCNC(=O)c1ccc(Cl)c2ccc(-c3ccccc3)nc12"
value = "3.06 µM (inactive)"

[[record]]
molecule = "O=c1[nH]nc(-c2cccc([N+](=O)[O-])c2)[nH]1"
value = "> 100 µM (inactive)"

[[record]]
molecule = "CSc1nn(C)cc2nc(C)nc1-2"
value = "> 100 µM (inactive)"

[[record]]
molecule = "Cc1cccc(-c2nnc(S)[nH]2)c1"
value = "> 100 µM (inactive)"

[[record]]
molecule = "O=C(O)C1CCCCN1CCc1c[nH]c2ccccc12 (centres undefined)"
value = "> 100 µM (inactive)"

